# Species: Homo sapiens
# MEASUREMENT PROTOCOL: Inhibition of ADP-induced platelet aggregation
# Assay type: functional
pIC50: −log10 of the molar value.
OBSERVED PROPERTY: pIC50

# COMPOUND, pIC50
records = [
    ("COc1ccc2c(c1)CN1CC(=O)NC1=N2", 5.40),
    ("CN(C(=O)CCCOc1ccc2[nH]c(=O)ccc2c1)C1CCCCC1 [CILOSTAMIDE]", 5.72),
    ("O=C1CN2Cc3c(ccc(Cl)c3Cl)N=C2N1 [ANAGRELIDE]", 5.59),
]

P. CN(C(=O)CCCOc1ccc2c(c1)CN1CC(=O)NC1=N2)C1CCCCC1
Q. CCCCCCOc1ccc2c(c1)CN1CC(=O)NC1=N2
Ask | I'm curious whether P or Q has the smaller pIC50 number. Which is it? The response must carry the label of the picked entry.
Reply | Q
(Q: 4.21, P: 6.96)

* * *

# Organism: Rattus norvegicus
# MEASUREMENT PROTOCOL: Inhibition of rat heart cAMP phosphodiesterase
OBSERVED PROPERTY: IC25 (nM)

# annotated cases, reported IC25 shown
# COMPOUND, IC25, nM
data = [
    ("CN(C(=O)CCCOc1ccc2c(c1)CSC(=O)N2)C1CCCCC1", 380),
    ("CCCCCCOc1ccc2c(c1)CN1CC(=O)NC1=N2", 320),
    ("CN(C(=O)CCCOc1ccc2c(c1)OCC(=O)N2)C1CCCCC1", 1300),
    ("CN(C(=O)CCCOc1ccc2c(c1)SCC(=O)N2)C1CCCCC1", 1400),
    ("CN(C(=O)CCCOc1ccc2c(c1)COC(=O)N2)C1CCCCC1", 1000),
]

P. CN(C(=O)CCCOc1ccc2c(c1)CNC(=O)N2)C1CCCCC1
Q. CN(C(=O)CCCOc1ccc2[nH]c(=O)[nH]c(=O)c2c1)C1CCCCC1
R. CN(C(=O)CCCOc1ccc2c(c1)C(=O)NCC(=O)N2)C1CCCCC1
S. CN(C(=O)CCCOc1ccc2c(c1)CN1CC(=O)NC1=N2)C1CCCCC1 [LIXAZINONE]
Ask | Order the 4 compounds from highest to lowest IC25. API: response body holds the labels in the requested order.
Reply | R, Q, P, S

a. CN(C(=O)CCCOc1ccc2[nH]c(=O)ccc2c1)C1CCCCC1 [CILOSTAMIDE]
b. CN(C(=O)CCCOc1ccc2c(c1)CCC(=O)N2)C1CCCCC1
Ask | IC25 comparison. Which is larger, a or b ? The response must carry the label of the picked entry.
Reply | b
(b: 1500 nM, a: 700 nM)

* * *

# ASSAYED SYSTEM: Phosphodiesterase 3 (Homo sapiens, UniProt Q14432+Q13370)
# MEASUREMENT PROTOCOL: In vitro inhibition of cyclic AMP phosphodiesterase from human platelets.
OBSERVED PROPERTY: IC50 (nM)

# annotated cases, reported IC50 shown
# COMPOUND, ASSAYED SYSTEM, IC50 / nM
measured = [
    ("CN(C(=O)CCCOc1ccc2c(c1)SCC(=O)N2)C1CCCCC1", "Phosphodiesterase 3 (Homo sapiens, UniProt Q14432+Q13370)", 1800),
    ("CN(C(=O)CCCOc1ccc2c(c1)OCC(=O)N2)C1CCCCC1", "Phosphodiesterase 3 (Homo sapiens, UniProt Q14432+Q13370)", 3400),
    ("CN(C(=O)CCCOc1ccc2nc(O)sc2c1)C1CCCCC1", "Phosphodiesterase 3 (Homo sapiens, UniProt Q14432+Q13370)", 10000),
    ("COc1ccc2nc(O)sc2c1", "Phosphodiesterase 3 (Homo sapiens, UniProt Q14432+Q13370)", 21000),
    ("CN(C(=O)CCCOc1ccc2[nH]c(=O)oc(=O)c2c1)C1CCCCC1", "Phosphodiesterase 3 (Homo sapiens, UniProt Q14432+Q13370)", 4400),
    ("COc1ccc2c(c1)CSC(=O)N2", "Phosphodiesterase 3 (Homo sapiens, UniProt Q14432+Q13370)", 13000),
    ("CN(C(=O)CCCOc1ccc2c(c1)CSC(=O)N2)C1CCCCC1", "Phosphodiesterase 3 (Homo sapiens, UniProt Q14432+Q13370)", 190),
    ("CN(C(=O)CCCOc1ccc2c(c1)C(=O)NCC(=O)N2)C1CCCCC1", "Phosphodiesterase 3 (Homo sapiens, UniProt Q14432+Q13370)", 3600),
    ("COc1ccc2c(c1)CN1CC(=O)NC1=N2", "Phosphodiesterase 3 (Homo sapiens, UniProt Q14432+Q13370)", 1500),
    ("CCCCCCOc1ccc2c(c1)CN1CC(=O)NC1=N2", "Phosphodiesterase 3 (Homo sapiens, UniProt Q14432+Q13370)", 290),
]

I. CN(C(=O)CCCOc1ccc2c(c1)CN1CC(=O)NC1=N2)C1CCCCC1 [LIXAZINONE]
II. CN(C(=O)CCCOc1ccc2c(c1)CCC(=O)N2)C1CCCCC1
Ask | I'm curious whether I or II has the smaller IC50 number. Which is it? The response must carry the label of the picked entry.
Reply | I
